# TESTED_ON: Pim1 kinase (Homo sapiens)
# Sequence (P11309 whole entry): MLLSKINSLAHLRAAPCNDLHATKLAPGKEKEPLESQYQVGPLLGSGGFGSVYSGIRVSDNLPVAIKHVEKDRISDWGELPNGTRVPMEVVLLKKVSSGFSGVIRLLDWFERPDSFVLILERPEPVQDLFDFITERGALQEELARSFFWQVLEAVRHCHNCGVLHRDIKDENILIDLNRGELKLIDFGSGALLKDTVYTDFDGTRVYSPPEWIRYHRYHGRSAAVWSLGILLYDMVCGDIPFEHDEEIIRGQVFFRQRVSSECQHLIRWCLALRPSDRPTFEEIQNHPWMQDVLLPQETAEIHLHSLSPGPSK
# EXPERIMENTAL_PROTOCOL: Pim1 ATP depletion assay
# Assay type: biochemical
# MEASUREMENT_SETUP: Pim1 ATP depletion assay; read-out: IC50 (μM) PIM1;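 further: Luciferase-luciferin luminescence readout of residual ATP after PIM1 transfers phosphate to a peptide substrate, 40 µM ATP added, reaction run to roughly half ATP consumption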
ASSAY_METRIC: IC50

- MOLECULE: "NCC1CCCN(c2cnc(=O)[nH]c2NC(=O)c2nc(Br)cnc2N)C1 (centres unmarked) [Example 240]"
  TESTED_ON: "Pim1 kinase (Homo sapiens)"
  ASSAY_METRIC: "IC50"
  RESULT: "< 1 µM"
- MOLECULE: "N#Cc1ccccc1-c1cnc(N)c(C(=O)Nc2[nH]c(=O)ncc2N2CCCC(N)C2)n1 (centres unmarked) [Example 403]"
  TESTED_ON: "Pim1 kinase (Homo sapiens)"
  ASSAY_METRIC: "IC50"
  RESULT: "< 1 µM"
- MOLECULE: "Nc1ccc(-c2sccc2Cl)nc1C(=O)Nc1cnccc1N1CCC[C@H](N)C1 [Example 474]"
  TESTED_ON: "Pim1 kinase (Homo sapiens)"
  ASSAY_METRIC: "IC50"
  RESULT: "< 1 µM"
- MOLECULE: "Cc1ccc(NC(=O)c2nccnc2N)c(N2CCC(N)CC2)c1 [Example 228]"
  TESTED_ON: "Pim1 kinase (Homo sapiens)"
  ASSAY_METRIC: "IC50"
  RESULT: "< 1 µM"
- MOLECULE: "COc1cccc(-c2ccc(N)c(C(=O)Nc3cnccc3N3CCC[C@H](N)C3)n2)n1 [Example 413]"
  TESTED_ON: "Pim1 kinase (Homo sapiens)"
  ASSAY_METRIC: "IC50"
  RESULT: "< 1 µM"

----------
Target sequence: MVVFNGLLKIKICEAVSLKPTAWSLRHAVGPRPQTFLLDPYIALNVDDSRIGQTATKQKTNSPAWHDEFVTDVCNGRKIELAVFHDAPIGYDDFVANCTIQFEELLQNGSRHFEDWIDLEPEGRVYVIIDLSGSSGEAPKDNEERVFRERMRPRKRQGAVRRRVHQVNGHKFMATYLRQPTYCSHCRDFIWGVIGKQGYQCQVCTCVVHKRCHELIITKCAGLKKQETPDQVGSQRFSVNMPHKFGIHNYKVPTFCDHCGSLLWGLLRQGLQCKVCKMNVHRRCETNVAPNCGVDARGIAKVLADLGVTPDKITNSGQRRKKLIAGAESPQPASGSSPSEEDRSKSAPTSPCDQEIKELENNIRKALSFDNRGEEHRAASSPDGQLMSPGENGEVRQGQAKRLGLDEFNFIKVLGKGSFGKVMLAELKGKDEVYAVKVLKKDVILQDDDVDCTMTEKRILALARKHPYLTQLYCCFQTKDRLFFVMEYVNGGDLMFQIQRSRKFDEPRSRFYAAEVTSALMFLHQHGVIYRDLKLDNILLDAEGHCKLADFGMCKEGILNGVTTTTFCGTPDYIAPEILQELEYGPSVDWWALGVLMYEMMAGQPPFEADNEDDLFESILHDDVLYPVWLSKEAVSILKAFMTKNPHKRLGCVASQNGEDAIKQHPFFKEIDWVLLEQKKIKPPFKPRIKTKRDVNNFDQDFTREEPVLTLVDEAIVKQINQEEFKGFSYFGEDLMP
Each item that follows carries a reported IC50.
ASSAY_METRIC: IC50

- MOLECULE: "Nc1nc(N)c(C(=O)Nc2[nH]c(=O)ncc2N2CCCC(C(F)(F)F)C2)nc1Cl (stereo not shown)"
  RESULT: "10000 to 25000 nM"
- MOLECULE: "NCCC(=O)N1CCN(c2cnc(=O)[nH]c2NC(=O)c2nccnc2N)CC1"
  RESULT: "1000 to 10000 nM"
- MOLECULE: "Nc1nccnc1C(=O)Nc1[nH]c(=O)ncc1-c1cccs1"
  RESULT: "< 1000 nM"
- MOLECULE: "Nc1ncc(-c2ccccc2OC(F)(F)F)nc1C(=O)Nc1[nH]c(=O)ncc1N1CCCCC1"
  RESULT: "> 25000 nM"
- MOLECULE: "NCC(=O)N1CCN(c2ccncc2NC(=O)c2nc(Br)cnc2N)CC1"
  RESULT: "< 1000 nM"
- MOLECULE: "Nc1nc(N)c(C(=O)Nc2[nH]c(=O)ncc2N2CCC(F)(F)CC2)nc1Cl"
  RESULT: "> 25000 nM"
- MOLECULE: "NCCC(=O)N1CCN(c2cnc(=O)[nH]c2NC(=O)c2nc(Cl)c(N)nc2N)CC1"
  RESULT: "> 25000 nM"
- MOLECULE: "Nc1ncc(-c2ccccc2F)nc1C(=O)Nc1[nH]c(=O)ncc1N1CCCC(N)C1 (stereo not shown)"
  RESULT: "< 1000 nM"
- MOLECULE: "Nc1nccnc1C(=O)Nc1cncnc1N1CCCCC1"
  RESULT: "> 25000 nM"
- MOLECULE: "Nc1nccnc1C(=O)Nc1cccnc1N1CCCC(N)C1 (stereo not shown)"
  RESULT: "1000 to 10000 nM"
- MOLECULE: "Nc1nccnc1C(=O)Nc1cnccc1N1CCC[C@@H](N)C1"
  RESULT: "< 1000 nM"
- MOLECULE: "Nc1ncc(Br)nc1C(=O)Nc1cnccc1N1CCCCC1"
  RESULT: "< 1000 nM"
- MOLECULE: "Nc1ncc(Br)nc1C(=O)Nc1[nH]c(=O)ncc1-c1nccs1"
  RESULT: "> 25000 nM"
- MOLECULE: "Nc1ncc(-c2ccccc2Oc2ccccc2)nc1C(=O)Nc1cnccc1N1CCC(N)CC1"
  RESULT: "< 1000 nM"
- MOLECULE: "Nc1ncc(Br)nc1C(=O)Nc1[nH]c(=O)ncc1N1CCCC(N)C1 (stereo not shown)"
  RESULT: "< 1000 nM"
- MOLECULE: "Nc1ncc(Br)nc1C(=O)Nc1ccccc1N1CCNCC1"
  RESULT: "< 1000 nM"
- MOLECULE: "Nc1ncc(-c2cccnc2)nc1C(=O)Nc1cnccc1N1CCCC(N)C1 (stereo not shown)"
  RESULT: "1000 to 10000 nM"
- MOLECULE: "Nc1cccnc1C(=O)Nc1cnccc1N1CCC[C@H](N)C1"
  RESULT: "1000 to 10000 nM"
- MOLECULE: "NC(=O)c1ccc(N2CCCCC2)c(NC(=O)c2nc(Br)cnc2N)c1"
  RESULT: "> 25000 nM"
- MOLECULE: "Cc1cnc(N)c(C(=O)Nc2cnccc2N2CCCC(N)C2)n1 (stereo not shown)"
  RESULT: "1000 to 10000 nM"
- MOLECULE: "Nc1nccnc1C(=O)Nc1cc(Cl)ccc1N1CCNCC1"
  RESULT: "1000 to 10000 nM"
- MOLECULE: "NCC1CCCN(c2cnc(=O)[nH]c2NC(=O)c2nccnc2N)C1 (stereo not shown)"
  RESULT: "< 1000 nM"
- MOLECULE: "Nc1nccnc1C(=O)Nc1ccncc1N1CCCCC1"
  RESULT: "< 1000 nM"
- MOLECULE: "Nc1nc(N)c(C(=O)Nc2cnccc2N2CCCCC2)nc1Cl"
  RESULT: "> 25000 nM"
- MOLECULE: "Cc1cnc(N)c(C(=O)Nc2ccccc2N2CCCC(N)C2)n1 (stereo not shown)"
  RESULT: "< 1000 nM"
- MOLECULE: "Nc1nccnc1C(=O)Nc1cc(C(F)(F)F)ccc1N1CCCC(N)C1 (stereo not shown)"
  RESULT: "1000 to 10000 nM"
- MOLECULE: "Nc1ncc(Br)nc1C(=O)Nc1[nH]c(=O)ncc1N1CCCC(C(F)(F)F)C1 (stereo not shown)"
  RESULT: "< 1000 nM"
- MOLECULE: "Nc1ncc(Br)nc1C(=O)Nc1[nH]c(=O)ncc1N1CCC(F)(F)CC1"
  RESULT: "> 25000 nM"
- MOLECULE: "Nc1ncc(-c2ccccc2OC(F)(F)F)nc1C(=O)Nc1cnccc1N1CCCC(N)C1 (stereo not shown)"
  RESULT: "< 1000 nM"
- MOLECULE: "COc1ccc(N2CCCC(N)C2)c(NC(=O)c2nccnc2N)c1 (stereo not shown)"
  RESULT: "< 1000 nM"
- MOLECULE: "COc1ncccc1-c1cnc(N)c(C(=O)Nc2ccccc2N2CCNCC2)n1"
  RESULT: "< 1000 nM"
- MOLECULE: "Nc1nccnc1C(=O)Nc1ccccc1N1CCCC(N)C1 (stereo not shown)"
  RESULT: "< 1000 nM"
- MOLECULE: "NCC1CCCN(c2cnc(=O)[nH]c2NC(=O)c2nc(Br)cnc2N)C1 (stereo not shown)"
  RESULT: "< 1000 nM"
- MOLECULE: "Nc1cccnc1C(=O)Nc1ccncc1N1CCCC(N)C1 (stereo not shown)"
  RESULT: "1000 to 10000 nM"
- MOLECULE: "Nc1nc(N)c(C(=O)Nc2cnccc2N2CCCC(N)C2)nc1Cl (stereo not shown)"
  RESULT: "10000 to 25000 nM"
- MOLECULE: "Nc1ncc(Br)nc1C(=O)Nc1cnccc1N1CCCC(NCc2ccccc2)C1 (stereo not shown)"
  RESULT: "1000 to 10000 nM"
- MOLECULE: "Nc1ncc(Br)nc1C(=O)Nc1[nH]c(=O)ncc1N1CCCCC1"
  RESULT: "< 1000 nM"
